B1: Chromodomain-helicase-DNA-binding protein 5, residues 411 to 463; numbered along this chain, Q8TDI0 (parent)
chain: EEDDHMEFCRVCKDGGELLCCDACPSSYHLHCLNPPLPEIPNGEWLCPRCTCP

variants of: B1; assay: abundance fitness (aPCA) (normalised: wild type 0, dead -1); higher = more abundant; growth selection in yeast, the domain comes from the species named; conditions: Homo sapiens
Measure name: abundance fitness
Number only, please.

## Task Specify reported abundance fitness for the variant shown: A23R
## Result -0.022

## Task Specify reported abundance fitness for the variant shown: H29P
## Result -0.732

## Task Specify reported abundance fitness for the variant shown: P25K
## Result 0.058

## Task Specify reported abundance fitness for the variant shown: E44A
## Result -0.095

## Task Specify reported abundance fitness for the variant shown: S26I
## Result -0.08

## Task Specify reported abundance fitness for the variant shown: H31T
## Result -0.16

## Task Specify reported abundance fitness for the variant shown: C32P
## Result -0.638

## Task Specify reported abundance fitness for the variant shown: H29F
## Result -0.765

## Task Specify reported abundance fitness for the variant shown: W45H
## Result -0.512

## Task Specify reported abundance fitness for the variant shown: P53L
## Result 0.13

## Task Specify reported abundance fitness for the variant shown: I40K
## Result -0.104

## Task Specify reported abundance fitness for the variant shown: L18I
## Result 0.035

## Task Specify reported abundance fitness for the variant shown: N42M
## Result -0.137

## Task Specify reported abundance fitness for the variant shown: T51N
## Result 0.018

## Task Specify reported abundance fitness for the variant shown: E39Y
## Result -0.329

## Task Specify reported abundance fitness for the variant shown: G43R
## Result -0.074

## Task Specify reported abundance fitness for the variant shown: N34S
## Result 0.097

## Task Specify reported abundance fitness for the variant shown: C24N
## Result -0.904

## Task Specify reported abundance fitness for the variant shown: P25M
## Result -0.11

## Task Specify reported abundance fitness for the variant shown: R49E
## Result 0.148

## Task Specify reported abundance fitness for the variant shown: L30D
## Result -0.013

## Task Specify reported abundance fitness for the variant shown: C32S
## Result -1.05

## Task Specify reported abundance fitness for the variant shown: L46V
## Result -0.017

## Task Specify reported abundance fitness for the variant shown: H31V
## Result -0.268

## Task Specify reported abundance fitness for the variant shown: P35N
## Result -0.172

## Task Specify reported abundance fitness for the variant shown: C24D
## Result -0.703

## Task Specify reported abundance fitness for the variant shown: I40W
## Result -0.633

## Task Specify reported abundance fitness for the variant shown: Y28I
## Result -0.535

## Task Specify reported abundance fitness for the variant shown: S26D
## Result 0.011

## Task Specify reported abundance fitness for the variant shown: P38C
## Result -0.63

## Task Specify reported abundance fitness for the variant shown: C52D
## Result 0.262

## Task Specify reported abundance fitness for the variant shown: L30F
## Result -0.06

## Task Specify reported abundance fitness for the variant shown: A23C
## Result -0.018

## Task Specify reported abundance fitness for the variant shown: A23F
## Result -0.708

## Task Specify reported abundance fitness for the variant shown: D22T
## Result 0.038

## Task Specify reported abundance fitness for the variant shown: C20I
## Result 0.073

## Task Specify reported abundance fitness for the variant shown: C50S
## Result -0.702

## Task Specify reported abundance fitness for the variant shown: C50H
## Result 0.008

## Task Specify reported abundance fitness for the variant shown: C52S
## Result 0.138

## Task Specify reported abundance fitness for the variant shown: P48F
## Result 0.31

## Task Specify reported abundance fitness for the variant shown: C24A
## Result -0.637

## Task Specify reported abundance fitness for the variant shown: W45R
## Result -0.449

## Task Specify reported abundance fitness for the variant shown: P41N
## Result 0.168

## Task Specify reported abundance fitness for the variant shown: C21T
## Result -1

## Task Specify reported abundance fitness for the variant shown: L18A
## Result -0.769

## Task Specify reported abundance fitness for the variant shown: L37R
## Result -0.006

## Task Specify reported abundance fitness for the variant shown: C24E
## Result -0.564

## Task Specify reported abundance fitness for the variant shown: E17S
## Result -0.21

## Task Specify reported abundance fitness for the variant shown: W45G
## Result -0.457

## Task Specify reported abundance fitness for the variant shown: L33S
## Result -0.487

## Task Specify reported abundance fitness for the variant shown: R49S
## Result 0.04

## Task Specify reported abundance fitness for the variant shown: L18W
## Result -0.972

## Task Specify reported abundance fitness for the variant shown: L30Q
## Result 0.016

## Task Specify reported abundance fitness for the variant shown: C21S
## Result -0.883

## Task Specify reported abundance fitness for the variant shown: L30Y
## Result -0.019

## Task Specify reported abundance fitness for the variant shown: S26G
## Result -0.036

## Task Specify reported abundance fitness for the variant shown: L33A
## Result -0.171

## Task Specify reported abundance fitness for the variant shown: H29C
## Result -0.164

## Task Specify reported abundance fitness for the variant shown: C32R
## Result -1

## Task Specify reported abundance fitness for the variant shown: R49A
## Result -0.017

## Task Specify reported abundance fitness for the variant shown: C21K
## Result -0.641

## Task Specify reported abundance fitness for the variant shown: C50K
## Result -0.598

## Task Specify reported abundance fitness for the variant shown: H31E
## Result 0.074

## Task Specify reported abundance fitness for the variant shown: L46A
## Result -0.027

## Task Specify reported abundance fitness for the variant shown: E44S
## Result 0.031

## Task Specify reported abundance fitness for the variant shown: C24H
## Result 0.139

## Task Specify reported abundance fitness for the variant shown: C52Y
## Result -0.295

## Task Specify reported abundance fitness for the variant shown: L37G
## Result -0.232

## Task Specify reported abundance fitness for the variant shown: N42E
## Result -0.022

## Task Specify reported abundance fitness for the variant shown: E44C
## Result -0.026

## Task Specify reported abundance fitness for the variant shown: P41M
## Result -0.262

## Task Specify reported abundance fitness for the variant shown: A23K
## Result 0.092

## Task Specify reported abundance fitness for the variant shown: E44G
## Result -0.027

## Task Specify reported abundance fitness for the variant shown: L33C
## Result -0.125

## Task Specify reported abundance fitness for the variant shown: D22G
## Result 0.049

## Task Specify reported abundance fitness for the variant shown: W45Q
## Result -0.506

## Task Specify reported abundance fitness for the variant shown: N42G
## Result 0.12

## Task Specify reported abundance fitness for the variant shown: Y28D
## Result -0.405

## Task Specify reported abundance fitness for the variant shown: L37C
## Result -0.299

## Task Specify reported abundance fitness for the variant shown: H31M
## Result -0.088

## Task Specify reported abundance fitness for the variant shown: C50V
## Result -0.675

## Task Specify reported abundance fitness for the variant shown: G43P
## Result -0.041

## Task Specify reported abundance fitness for the variant shown: D22R
## Result 0.071

## Task Specify reported abundance fitness for the variant shown: R49D
## Result 0.101

## Task Specify reported abundance fitness for the variant shown: P36K
## Result 0.088

Data origin, for the record: the Human Domainome abundance scans (Beltran et al. 2025)
